# System: Hara (NRF2 pathway wild type cell line with low AKR1C3 expression)
# EXPERIMENT_SUMMARY: In vitro cell proliferation assay (CellTiter-Glo), Hara
# Format: cell-based
# RUN_PARAMETERS: 72 h; Hara cells, 3 days, CellTiter-Glo, top concentration 10 μM; read-out: HARA Qualified absolute AC50
PROPERTY_LABEL: AC50 (µM)

O=C1CC2(CCN(C(=O)NCc3ccc(F)cc3C(F)(F)F)CC2)Nc2ccc(F)cc21; 2.3
CCN1c2ccc(F)cc2C(=O)CC12CCN(C(=O)NCc1ccc(F)c(C(N)=O)c1)CC2; 7.95
O=C1CC2(CCN(C(=O)NCc3ccc(O)cc3)CC2)Nc2c(F)cc(F)cc21; 9.85
CS(=O)(=O)Nc1cc(CNC(=O)N2CCC3(CC2)CC(O)c2cc(F)ccc2N3)ccc1F (racemic); 0.234
O=C1CC2(CCN(C(=O)NCc3ccc(F)cc3OCC(F)(F)F)CC2)Nc2ccc(F)cc21; 4.75
NC(=O)c1cc(CNC(=O)N2CCC3(CC2)CC(=O)c2cc(F)ccc2N3)ccc1F; 5.94

====

Here the recorded AC50 is given for each entry.
# Tested on: Hara (NRF2 pathway wild type cell line with low AKR1C3 expression)
# EXPERIMENT_SUMMARY: In vitro cell proliferation assay (CellTiter-Glo), Hara
# Assay type: cell-based
# RUN_PARAMETERS: 72 h; Hara cells, 3 days, CellTiter-Glo, top concentration 10 μM; read-out: HARA Qualified absolute AC50
PROPERTY_LABEL: AC50

Nc1ccc(CNC(=O)N2CCC3(CC2)CC(=O)c2cc(F)ccc2N3)c(F)c1; > 10 µM
COC(=O)c1cc(CNC(=O)N2CCC3(CC2)CC(=O)c2cc(F)ccc2N3)ccc1F; 3.04 µM
CNC(=O)c1cc(CNC(=O)N2CCC3(CC2)CC(=O)c2cc(F)ccc2N3)ccc1F; > 10 µM
O=C1CC2(CCN(C(=O)NCc3cc[nH]n3)CC2)Nc2ccc(F)cc21; > 10 µM

====

# Test system: H460 (NRF2 pathway mutant cell line with high AKR1C3 expression)
# EXPERIMENT_SUMMARY: In vitro cell proliferation assay (CellTiter-Glo), H460
# Type: cell-based
# RUN_PARAMETERS: Homo sapiens, NCI-H460, 72 h; H460 cells, 3 days, CellTiter-Glo, top concentration 10 μM; read-out: H460 Qualified absolute AC50
PROPERTY_LABEL: AC50 (nM)

O=C1CC2(CCN(C(=O)NCc3ccc(F)c(CO)c3)CC2)Nc2c(F)cc(F)cc21; 1720
Nc1c(F)ccc(CNC(=O)N2CCC3(CC2)CC(=O)c2cc(F)ccc2N3)c1F; 367
O=C1CC2(CCN(C(=O)NCc3ccc(F)c(CNCCO)c3)CC2)Nc2ccc(F)cc21; 3650
O=C1CC2(CCN(C(=O)NCc3ccc(F)cc3)CC2)N(CCO)c2ccc(F)cc21; 31
CN1c2ccc(F)cc2C(=O)CC12CCN(C(=O)NCc1ccc(F)c(C(=O)NCCO)c1)CC2; 356
O=C(NCc1ccc(CO)cc1)c1cc(CNC(=O)N2CCC3(CC2)CC(=O)c2cc(F)ccc2N3)ccc1F; 64
CN1c2ccc(F)cc2C(O)CC12CCN(C(=O)NCc1ccc(F)c(OCCO)c1)CC2 (racemic); 76
COc1cc(CNC(=O)N2CCC3(CC2)CC(=O)c2cc(F)ccc2N3C)ccc1F; 15
C[C@H](O)CNC(=O)c1cc(CNC(=O)N2CCC3(CC2)CC(=O)c2cc(F)ccc2N3C)ccc1F; 956
Cc1cc(F)cc2c1NC1(CCN(C(=O)NCc3ccc(F)c(C(N)=O)c3)CC1)CC2=O; 2450
O=C1CC2(CCN(C(=O)NCc3cccc4c3OCO4)CC2)Nc2c(F)cc(F)cc21; 141
COCCNc1cc(CNC(=O)N2CCC3(CC2)CC(=O)c2cc(F)ccc2N3)ccc1F; 507
CN1c2ccc(F)cc2[C@H](O)CC12CCN(C(=O)NCc1ccc(F)cc1)CC2 (single isomer, unassigned) [Example 151a]; 24
O=C1CC2(CCN(C(=O)NCc3ccoc3C(F)(F)F)CC2)Nc2ccc(F)cc21; 489
CC(O)c1cc(CNC(=O)N2CCC3(CC2)CC(=O)c2cc(F)ccc2N3)ccc1F (stereo not shown); 1860
O=C1CC2(CCN(C(=O)NCc3ccc(F)cc3)CC2)Nc2ccc(F)cc21; 83

====

# Tested on: H460 (NRF2 pathway mutant cell line with high AKR1C3 expression)
# EXPERIMENT_SUMMARY: In vitro cell proliferation assay (CellTiter-Glo), H460
# Type: cell-based
# RUN_PARAMETERS: Homo sapiens, NCI-H460, 72 h; H460 cells, 3 days, CellTiter-Glo, top concentration 10 μM; read-out: H460 Qualified absolute AC50
Threshold 90 nM. AC50 below it: Satisfied. AC50 at it or above: Not satisfied.

NC(=O)c1cc(CNC(=O)N2CCC3(CC2)CC(O)c2cc(F)cc(F)c2N3)ccc1F (racemic); Satisfied
Cc1cc(CNC(=O)N2CCC3(CC2)CC(=O)c2cc(F)ccc2N3)n[nH]1; Not satisfied
C[C@@H](O)CNC(=O)c1cc(CNC(=O)N2CCC3(CC2)CC(=O)c2cc(F)ccc2N3C)ccc1F; Not satisfied
O=C1CC2(CCN(C(=O)NCc3ccoc3)CC2)Nc2c(F)cc(F)cc21; Not satisfied
O=C1CC2(CCN(C(=O)NCc3ccc4cc[nH]c4c3)CC2)Nc2ccc(F)cc21; Not satisfied
CCN1c2ccc(F)cc2C(=O)CC12CCN(C(=O)NCc1ccc(F)c(N)c1F)CC2; Satisfied
CN1c2ccc(F)cc2C(=O)CC12CCN(C(=O)NCc1ccc(F)c(NCCC(=O)O)c1)CC2; Not satisfied
O=C1CC2(CCN(C(=O)NCc3cccc(-c4cnco4)c3)CC2)Nc2c(F)cc(F)cc21; Satisfied
CN1c2ccc(F)cc2C(=O)CC12CCN(C(=O)NCc1ccc(F)c(C(N)=O)c1)CC2; Not satisfied
O=C(NCc1ccc(F)cc1O)N1CCC2(CC1)C[C@@H](O)c1cc(F)ccc1N2 (single isomer, unassigned) [Example 154a]; Satisfied
COCCOc1cc(CNC(=O)N2CCC3(CC2)CC(=O)c2cc(F)ccc2N3C)ccc1F; Satisfied
O=C1CC2(CCN(C(=O)NCc3cccc4nonc34)CC2)Nc2ccc(F)cc21; Not satisfied
COc1cc(CNC(=O)N2CCC3(CC2)CC(=O)c2cc(F)cc(F)c2N3)ccn1; Not satisfied
COc1cc(F)ccc1CNC(=O)N1CCC2(CC1)CC(=O)c1cc(F)ccc1N2; Not satisfied
O=C(NC1CC(O)C1)c1cc(CNC(=O)N2CCC3(CC2)CC(O)c2cc(F)ccc2N3)ccc1F (racemic); Satisfied
Nc1ccc(CNC(=O)N2CCC3(CC2)CC(=O)c2cc(F)ccc2N3)cc1Cl; Not satisfied

====

# Tested on: Hara (NRF2 pathway wild type cell line with low AKR1C3 expression)
# EXPERIMENT_SUMMARY: In vitro cell proliferation assay (CellTiter-Glo), Hara
# Assay type: cell-based
# RUN_PARAMETERS: 72 h; Hara cells, 3 days, CellTiter-Glo, top concentration 10 μM; read-out: HARA Qualified absolute AC50
PROPERTY_LABEL: AC50

Nc1ccc(CNC(=O)N2CCC3(CC2)CC(=O)c2cc(F)ccc2N3)c(F)c1F [Example 57]; > 10 µM
O=C1CC2(CCN(C(=O)NCc3ccc(F)nc3)CC2)Nc2c(F)cc(F)cc21 [Example 125]; > 10 µM
COCCNc1cc(F)ccc1CNC(=O)N1CCC2(CC1)CC(O)c1cc(F)ccc1N2C (racemic) [Example 166]; 0.022 µM
Cc1cc(F)cc2c1NC1(CCN(C(=O)NCc3ccc(F)c(C(N)=O)c3)CC1)CC2=O [Example 142]; > 10 µM
CN1c2ccc(F)cc2C(=O)CC12CCN(C(=O)NCc1ccc(F)cc1F)CC2 [Example 5]; > 10 µM
O=C1CC2(CCN(C(=O)NCc3ccc(F)c(-c4cnco4)c3)CC2)Nc2ccc(F)cc21 [Example 15]; 9.44 µM
O=C1CC2(CCN(C(=O)NCc3ccon3)CC2)Nc2ccc(F)cc21 [Example 118]; > 10 µM
O=C1CC2(CCN(C(=O)NCc3ccc(F)cc3)CC2)Nc2ccc(F)cc21 [Example 40]; 1.79 µM

====

# System: Hara (NRF2 pathway wild type cell line with low AKR1C3 expression)
# EXPERIMENT_SUMMARY: In vitro cell proliferation assay (CellTiter-Glo), Hara
# Format: cell-based
# RUN_PARAMETERS: 72 h; Hara cells, 3 days, CellTiter-Glo, top concentration 10 μM; read-out: HARA Qualified absolute AC50
Here the recorded log10(AC50) is given for each entry.
PROPERTY_LABEL: log10(AC50) (log10 of the value in µM)

COCCN1c2ccc(F)cc2C(=O)CC12CCN(C(=O)NCc1ccc(F)cc1)CC2; -0.10
CN1c2ccc(F)cc2C(O)CC12CCN(C(=O)NCc1ccc(F)c(OCCO)c1)CC2 (racemic); -1.96
O=C1CC2(CCN(C(=O)NCc3ccc(F)cc3)CC2)N(CCO)c2ccc(F)cc21; -0.16
C[C@@H](O)CNC(=O)c1cc(CNC(=O)N2CCC3(CC2)CC(=O)c2cc(F)ccc2N3C)ccc1F; 0.98
O=C(NCc1ccc(F)cc1)N1CCC2(CC1)C[C@@H](O)c1cc(F)ccc1N2 (single isomer, unassigned); -1.80
COC1CN(c2cc(CNC(=O)N3CCC4(CC3)CC(=O)c3cc(F)ccc3N4)ccc2F)C1; 0.57
CN1c2ccc(F)cc2[C@@H](O)CC12CCN(C(=O)NCc1ccc(F)cc1)CC2 (single isomer, unassigned) [Example 151b]; 0.78
Cc1occc1CNC(=O)N1CCC2(CC1)CC(=O)c1cc(F)cc(F)c1N2; 0.73
O=C1CC2(CCN(C(=O)NCc3cccc4c3OCO4)CC2)Nc2c(F)cc(F)cc21; 0.31
Nc1cc(CNC(=O)N2CCC3(CC2)CC(=O)c2cc(F)cc(F)c2N3)ccc1F; 0.54
O=C1CC2(CCN(C(=O)NCc3ccc(OC(F)F)cc3)CC2)Nc2c(F)cc(F)cc21; 0.42
O=C(NCc1ccc(F)cc1O)N1CCC2(CC1)C[C@@H](O)c1cc(F)ccc1N2 (single isomer, unassigned) [Example 154a]; -2.30
CN1c2ccc(F)cc2C(=O)CC12CCN(C(=O)NCc1ccc(F)c(OCCO)c1)CC2; 0.25
CN1c2ccc(F)cc2C(=O)CC12CCN(C(=O)NCc1ccc(F)c(NCCO)c1)CC2; 0.19
